Recorded values, source ChEMBL document CHEMBL2413009.

Measured solubility at 24 h of individual entries
# method.notes: Aqueous solubility of the compound in 0.1 M sodium phosphate buffer at pH 7.4 after 24 hrs
# Format: physicochemical
Report the value in µM with no unit label.

Answered examples (5):
smiles.data: COc1cncc(-c2cncc(-c3cn4cccc(C(N)=O)c4n3)c2)c1
solubility at 24 h (µM): 3.5
//
smiles.data: COc1cncc(-c2cccc(-c3cn4cccc(C(=O)N(C)C)c4n3)c2)c1
solubility at 24 h (µM): 10
//
smiles.data: COc1ccn2cc(-c3cccc(-c4cncc(OC[C@H]5CCCO5)c4)c3)nc2c1C(N)=O
solubility at 24 h (µM): 120
//
smiles.data: COc1cncc(-c2cccc(-c3nc4c(C(N)=O)cccc4[nH]3)c2)c1
solubility at 24 h (µM): 3
//
smiles.data: COc1cncc(-c2cccc(-c3nc4c(C(N)=O)cccn4n3)c2)c1
solubility at 24 h (µM): 18

Ask | Which solubility at 24 h reading was recorded for the compound CN(C)CCOc1cncc(-c2cccc(-c3cn4cccc(C(N)=O)c4n3)c2)c1 ?
Reply | 320

Ask | Please give the measured solubility at 24 h for this compound: NC(=O)c1cccn2cc(-c3cccc(-c4cncc(OCCF)c4)c3)nc12
Reply | 16

Ask | Tell me the measured solubility at 24 h of CNC(=O)c1cccn2cc(-c3cccc(-c4cncc(OC)c4)c3)nc12 , please.
Reply | 5.5

Ask | Field request: solubility at 24 h | item: COc1cncc(-c2cccc(-c3cn4ccc(OC)c(C(N)=O)c4n3)c2)c1
Reply | 40
